measurement notes: activity coefficient (dimensionless); of the first substance listed, at infinite dilution; xn = mol fraction of the nth substance listed
condition: 333.15 K; 101 kPa; Liquid; dilutor technique; x1 = 0
measured endpoint: activity coefficient

For orientation, consider the following solved cases.
compound	activity coefficient
CC1CCCCC1 [methylcyclohexane] + CCCCCCCC[N+]1(C)CCCC1.O=S(=O)([N-]S(=O)(=O)C(F)(F)F)C(F)(F)F	4.18
CC1CCCCC1 [methylcyclohexane] + CCCCCCn1cc[n+](C)c1.O=S(=O)([O-])C(F)(F)F	9.49
Cc1ccccc1 [toluene] + CCCCCCCC[N+]1(C)CCCC1.O=S(=O)([N-]S(=O)(=O)C(F)(F)F)C(F)(F)F	0.86

Required: activity coefficient, one value per compound below.
1. CCO [ethanol] + CCCCCCn1cc[n+](C)c1.O=S(=O)([O-])C(F)(F)F
2. CCO [ethanol] + CCOS(=O)(=O)[O-].CCn1cc[n+](C)c1
3. CCO [ethanol] + CCCC[N+]1(C)CCCC1.O=S(=O)([O-])C(F)(F)F
4. O [water] + CCCC[N+]1(C)CCCC1.O=S(=O)([O-])C(F)(F)F
5. CC1CCCCC1 [methylcyclohexane] + CCCCCC[n+]1ccn(C)c1.O=S(=O)([N-]S(=O)(=O)C(F)(F)F)C(F)(F)F
6. Cc1ccccc1 [toluene] + CCCCCC[n+]1ccn(C)c1.O=S(=O)([N-]S(=O)(=O)C(F)(F)F)C(F)(F)F

result:
1: 0.86; 2: 0.6; 3: 0.88; 4: 0.51; 5: 6.06; 6: 1.14
